Below: a set of entries, each annotated with reported IC50.
Test system: MOLM-13 cells
METHOD_DESCRIPTION: Cell viability assay (CellTiter-Glo) in MOLM-13 cells
Format: cell-based
CONDITIONS: Homo sapiens, MOLM-13, 72 h, read-out: MOLM-13 IC50 (nM)

O=C1CCC(N2C(=O)c3ccc(NC[C@H]4C[C@H](n5cc(NC6CCCCC6)c(C6CC6)n5)C4)cc3C2=O)C(=O)N1 (stereo partly drawn) [GS-667]	10 to 100 nM
O=C1CCC(N2C(=O)c3ccc(NC[C@H]4C[C@H](n5cc(-n6ccc7ccccc76)c(C6CC6)n5)C4)cc3C2=O)C(=O)N1 (stereo partly drawn) [GS-738]	100 to 1000 nM

Recorded IC50 for CC(C)n1ncc2ccc(-c3cn([C@H]4C[C@H](CNc5ccc6c(c5)C(=O)N(C5CCC(=O)NC5=O)C6=O)C4)nc3C3CC3)nc21 (stereo partly drawn) [GS-730] on MOLM-13 cells was 100 to 1000 nM

----------
Test system: MV4;11 cells
METHOD_DESCRIPTION: Cell viability assay (CellTiter-Glo) in MV4;11 cells
Assay type: cell-based
CONDITIONS: Homo sapiens, MV4-11, 72 h, MV4;11 cells, compound alone, three days; read-out: MV4; 11 IC50
METRIC: IC50

A selection of reference data follows.
COc1ccnc2c1c(C1CC1)nn2[C@H]1C[C@H](CNc2ccc3c(c2)C(=O)N(C2CCC(=O)NC2=O)C3=O)C1 (stereo partly drawn)	> 1000 nM
Cc1nn([C@H]2C[C@H](CNc3ccc4c(c3)C(=O)N(C3CCC(=O)NC3=O)C4=O)C2)c2ccccc12 (stereo partly drawn)	10 to 100 nM
O=C1CCC(N2C(=O)c3ccc(NC[C@H]4C[C@H](n5cc(-c6ncc(F)cc6N6CCNCC6)c(C6CC6)n5)C4)cc3C2=O)C(=O)N1 (stereo partly drawn)	> 1000 nM
Cc1nc(-c2cn([C@H]3C[C@H](C#Cc4ccc5c(c4)CN(C4CCC(=O)NC4=O)C5=O)C3)nc2C2CC2)ccc1F (stereo partly drawn)	> 1000 nM
Cc1nc(-c2cn([C@H]3C[C@H](CCc4ccc5c(c4)CN(C4CCC(=O)NC4=O)C5=O)C3)nc2C2CC2)ccc1F (stereo partly drawn)	10 to 100 nM

Query Cn1nccc1Nc1cn([C@H]2C[C@H](CNc3ccc4c(c3)C(=O)N(C3CCC(=O)NC3=O)C4=O)C2)nc1C1CC1 (stereo partly drawn) yields IC50 of 100 to 1000 nM

----------
Tested on: MV4;11 cells
METHOD_DESCRIPTION: Cell viability assay (CellTiter-Glo) in MV4;11 cells
Format: cell-based
CONDITIONS: Homo sapiens, MV4-11, 72 h, MV4;11 cells, compound alone, three days; read-out: MV4; 11 IC50
pIC50: −log10 of the molar value.
Reported values of pIC50 for individual entries

A selection of reference data follows.
O=C1CCC(N2C(=O)c3ccc(NC[C@H]4C[C@H](n5cc(-c6cc7c(cn6)cnn7C6CNC6)c(C6CC6)n5)C4)cc3C2=O)C(=O)N1 (stereo partly drawn)	< 6.00
O=C1CCC(N2C(=O)c3ccc(NC[C@H]4C[C@H](n5cc(-n6ncc7cccnc76)c(C6CC6)n5)C4)cc3C2=O)C(=O)N1 (stereo partly drawn)	> 8.00
O=C1CCC(N2C(=O)c3ccc(NCCCn4cc(-c5cnc6ccccc6n5)c(C5CC5)n4)cc3C2=O)C(=O)N1 (stereo not drawn)	7.00 to 8.00
O=C1CCC(N2C(=O)c3ccc(NC[C@H]4C[C@H](n5cc(-c6ncccc6[C@H]6C[C@H](O)C6)c(C6CC6)n5)C4)cc3C2=O)C(=O)N1 (stereo partly drawn)	7.00 to 8.00
O=C1CCC(N2C(=O)c3ccc(NC[C@H]4C[C@H](n5cc(-c6ccc7[nH]ccc7n6)c(C6CC6)n5)C4)cc3C2=O)C(=O)N1 (stereo partly drawn)	7.00 to 8.00

Please turn your attention to the following entry.
Measured on MV4;11 cells, Cn1ncc2cnc(-c3cn([C@H]4C[C@H](CCc5ccc6c(c5)C(=O)N(C5CCC(=O)NC5=O)C6=O)C4)nc3C3CC3)cc21 (stereo partly drawn) has a documented pIC50 of 6.00 to 7.00

----------
Test system: MOLM-13 cells
METHOD_DESCRIPTION: Cell viability assay (CellTiter-Glo) in MOLM-13 cells
Type: cell-based
CONDITIONS: MOLM-13 cells, with gilteritinib, three days; read-out: MOLM-13 IC50 (nM) + 10 nM Gil
METRIC: IC50

// worked examples, IC50 included
O=C1CCC(N2C(=O)c3ccc(NC[C@H]4C[C@H](n5cc(-c6ncc(F)c7[nH]ccc67)c(C6CC6)n5)C4)cc3C2=O)C(=O)N1 (stereo partly shown)	< 10 nM
N[C@H]1C[C@@H](n2cc3cnc(-c4cn([C@H]5C[C@H](CNc6ccc7c(c6)C(=O)N(C6CCC(=O)NC6=O)C7=O)C5)nc4C4CC4)cc3n2)C1 (stereo partly shown)	< 10 nM
Cc1cccc(-c2nn([C@H]3C[C@H](CNc4ccc5c(c4)C(=O)N(C4CCC(=O)NC4=O)C5=O)C3)cc2C2CC2)n1 (stereo partly shown)	10 to 100 nM
Cc1nc(-c2cn([C@H]3C[C@H](CCc4ccc5c(c4)CN(C4CCC(=O)NC4=O)C5=O)C3)nc2C2CC2)ccc1F (stereo partly shown)	10 to 100 nM
O=C1CCC(N2C(=O)c3ccc(NC[C@H]4C[C@H](n5cc(-c6ncc(F)cc6C6CCNCC6)c(C6CC6)n5)C4)cc3C2=O)C(=O)C1 (stereo partly shown)	100 to 1000 nM

Please fill in: IC50 reported for CC(C)n1ccc2c(-c3cn([C@H]4C[C@H](CNc5ccc6c(c5)C(=O)N(C5CCC(=O)NC5=O)C6=O)C4)nc3C3CC3)ncc(F)c21 (stereo partly shown) = < 10 nM

// IC50 lookup, compound = O=C1CCC(N2C(=O)c3ccc(OC[C@H]4C[C@H](n5cc(-c6cnc7ccccc7n6)c(C6CC6)n5)C4)cc3C2=O)C(=O)N1 (stereo partly shown) , result: 100 to 1000 nM

GET /value?item= Cc1nc(-c2cn([C@H]3C[C@H](CNc4ccc5c(c4)C(=O)N(C4CCC(=O)NC4=O)C5)C3)nc2C2CC2)ccc1F (stereo partly shown) &field=IC50 returns 100 to 1000 nM

----------
Tested on: MOLM-13 cells
METHOD_DESCRIPTION: Cell viability assay (CellTiter-Glo) in MOLM-13 cells
Assay type: cell-based
CONDITIONS: MOLM-13 cells, with gilteritinib, three days; read-out: MOLM-13 IC50 (nM) + 10 nM Gil
Collected IC50 values appear next to each entry.

Cc1nc(-c2cn(C3CC(F)(CNc4ccc5c(c4)C(=O)N(C4CCC(=O)NC4=O)C5=O)C3)nc2C2CC2)ccc1F (stereo not shown)	10 to 100 nM
Cc1nc(-c2cn([C@H]3C[C@H](CNc4ccc5c(c4)CN(C4CCC(=O)NC4=O)C5=O)C3)nc2C(F)F)ccc1F (stereo partly shown)	< 10 nM
O=C1CCC(N2C(=O)c3ccc(NCC4CC(n5cc(-c6cnc7c(NCC(O)CO)cccc7n6)c(C6CC6)n5)C4)cc3C2=O)C(=O)N1 (stereo not shown)	< 10 nM
CC(C)n1ccc2nc(-c3cn([C@H]4C[C@H](CNc5ccc6c(c5)C(=O)N(C5CCC(=O)NC5=O)C6=O)C4)nc3C3CC3)ccc21 (stereo partly shown)	10 to 100 nM
COc1ccnc2c1c(C1CC1)nn2[C@H]1C[C@H](CNc2ccc3c(c2)C(=O)N(C2CCC(=O)NC2=O)C3=O)C1 (stereo partly shown)	10 to 100 nM
O=C1CCC(N2C(=O)c3ccc(NC[C@H]4C[C@H](n5nc(C6CC6)c6cc(N7CCNCC7)ccc65)C4)cc3C2=O)C(=O)N1 (stereo partly shown)	100 to 1000 nM
Cn1ccc2nc(-c3cn([C@H]4C[C@H](CNc5ccc6c(c5)C(=O)N(C5CCC(=O)NC5=O)C6=O)C4)nc3C3CC3)ccc21 (stereo partly shown)	< 10 nM
Cc1cc(F)cnc1-c1cn([C@H]2C[C@H](CNc3ccc4c(c3)C(=O)N(C3CCC(=O)NC3=O)C4=O)C2)nc1C(F)F (stereo partly shown)	< 10 nM
O=C1CCC(N2C(=O)c3ccc(NC[C@H]4C[C@H](n5cc(-c6cnc7c(NC(CO)CO)cccc7n6)c(C6CC6)n5)C4)cc3C2=O)C(=O)N1 (stereo partly shown)	< 10 nM

MOLM-13 cells assay, molecule CN(C)c1ccccc1-c1cn([C@H]2C[C@H](CNc3ccc4c(c3)C(=O)N(C3CCC(=O)NC3=O)C4=O)C2)nc1C1CC1 (stereo partly shown) , recorded IC50 = 10 to 100 nM

----------
# key: entry, value: IC50
System: MV4;11 cells
METHOD_DESCRIPTION: Cell viability assay (CellTiter-Glo) in MV4;11 cells
Format: cell-based
CONDITIONS: Homo sapiens, MV4-11, 72 h, MV4;11 cells, compound alone, three days; read-out: MV4; 11 IC50

Consider the reported IC50 for these compounds:
Cc1cnc2c(c1)c(C1CC1)nn2[C@H]1C[C@H](CNc2ccc3c(c2)C(=O)N(C2CCC(=O)NC2=O)C3=O)C1 (stereo partly drawn)	> 1000 nM
COC1CCCCC1c1cn([C@H]2C[C@H](CNc3ccc4c(c3)C(=O)N(C3CCC(=O)NC3=O)C4=O)C2)nc1C1CC1 (stereo partly drawn)	10 to 100 nM

In the following, a different compound is considered.
Form: compound = O=C1CCC(N2C(=O)c3ccc(NC[C@H]4C[C@H](n5cc(Nc6ccccn6)c(C6CC6)n5)C4)cc3C2=O)C(=O)N1 (stereo partly drawn) ; IC50 = 100 to 1000 nM
